All figures here come from patent US20240270821A1.

biological target: human GcgR (Homo sapiens); test: Functional cAMP activity in the presence of 1% HSA; format: cell-based; conditions: read-out: cAMP Rel EC50, hGcgR
Sequence (P47871 26-477): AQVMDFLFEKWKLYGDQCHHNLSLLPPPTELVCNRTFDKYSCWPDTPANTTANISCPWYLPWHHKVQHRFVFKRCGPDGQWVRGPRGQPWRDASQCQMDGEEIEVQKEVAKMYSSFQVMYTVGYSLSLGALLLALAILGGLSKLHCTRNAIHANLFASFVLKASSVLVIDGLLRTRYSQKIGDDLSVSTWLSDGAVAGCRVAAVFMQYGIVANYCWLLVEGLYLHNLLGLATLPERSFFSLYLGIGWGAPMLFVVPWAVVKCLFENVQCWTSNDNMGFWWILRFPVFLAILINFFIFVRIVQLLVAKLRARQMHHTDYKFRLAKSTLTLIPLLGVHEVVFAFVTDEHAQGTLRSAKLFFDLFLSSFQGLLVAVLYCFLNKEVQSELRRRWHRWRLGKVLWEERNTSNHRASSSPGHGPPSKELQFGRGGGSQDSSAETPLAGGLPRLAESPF
Starred links: 1 amine or outer side, 2 acyl side, 3 side chain; linkers in the order of their positions; H or OH if unused. Non-standard residues stand in square brackets, D forms with d. Groups on a side chain read outwards from the residue. No end group written: not given here. *: point of attachment. C20 diacid = O=C(O)CCCCCCCCCCCCCCCCCCC(=O)*; C18 diacid = O=C(O)CCCCCCCCCCCCCCCCC(=O)*; αMePhe(2-F) = C[C@](N)(Cc1ccccc1F)C(=O)O; γGlu = O=C(O)[C@H](CCC(=O)[*:2])N[*:1]; NMeY = CN[C@@H](Cc1ccc(O)cc1)C(=O)O; αMe4Pal = C[C@](N)(Cc1ccncc1)C(=O)O; αMeY = C[C@](N)(Cc1ccc(O)cc1)C(=O)O; 4Pal = N[C@@H](Cc1ccncc1)C(=O)O; αMeL = CC(C)C[C@](C)(N)C(=O)O; αMeS = C[C@](N)(CO)C(=O)O; Orn = NCCC[C@H](N)C(=O)O; AEEA = NCCOCCOCC(=O)O; Aib = CC(C)(N)C(=O)O
assay_metric: log10 of EC50 (log10 of the value in nM)
Transform log10 | Measure EC50 | Unit nM

Examples with answers:
In: Quick check: log10 of EC50 of H-Y[Aib]QGT[αMePhe(2-F)]TSD[4Pal]SI[αMeL]LD[Orn]K([γGlu-γGlu-C18 diacid])AQ[αMe4Pal]EFI[dE][αMeY]LQEGGPSSGEPPPSGS-NH2 [Example 649] ?
Out: 2.83

In: Try the substance H-Y[Aib]QGTFTSD[4Pal]SQ[αMeL]LD[Orn]K([γGlu-γGlu-C18 diacid])AQ[αMe4Pal]QFIE[αMeY]LIEGGPSSGAPPPSGSEE-NH2 [Example 1046]
Out: 3.23

In: Also H-Y[Aib]QGT[αMePhe(2-F)]TSDYSILLDKQAAK([AEEA-AEEA-γGlu-C20 diacid])EFIEYLIEGGPSSGEPPPSEG-NH2 [Example 348] ?
Out: 3.10

In: Same for H-Y[Aib]QGTFTSDFS[Orn][αMeL]LDKK([AEEA-γGlu-C18 diacid])AQ[Aib]AFIEYLLE[Aib]GHSSGAPPPSGE-NH2 [Example 247]
Out: 2.65

// moving on: another record for log10 of EC50
In: Would you kindly share the measured log10 of EC50 for [NMeY][Aib]QGTFTSD[4Pal][αMeS]I[αMeL]LD[Orn]K([dE-γGlu-C18 diacid])AQ[αMe4Pal]QFIQ[αMeY]LIE[Aib]GPSSGAPPPSGGGE-NH2 [Example 1135] ?
Out: 2.15
